Value source: the supplement of paper PMC10724198

System: Saccharomyces cerevisiae
experiment.notes: protein stability index of tFT-peptide fusion (C-terminal peptide) (PSI (0-1 scale)); higher = more stable (slower turnover)
condition: genetic background: wild type; temperature: 30 C
Here the recorded protein stability index is given for each entry.
I only need the number, thanks.

* LNDIGDPTKTVQ [YPL025C C-terminal 12 aa] | 0.705
* GVAKSMGIKVVP [MRPL19 C-terminal 12 aa] | 0.686
* DKPLYKRMFSTK [HXT6 C-terminal 12 aa] | 0.713
* EPTKKGFLVCRM [YMR320W C-terminal 12 aa] | 0.702
* MFTSDKKTEQTT [URC2 C-terminal 12 aa] | 0.695

We now examine a further sequence.
Prompt: Report protein stability index, nothing else, for this sequence: LFSNVLSLSSNI [YGL007C-A C-terminal 12 aa]
Response: 0.695

====

Test system: Saccharomyces cerevisiae
experiment.notes: protein stability index of tFT-peptide fusion (C-terminal peptide) (PSI (0-1 scale)); higher = more stable (slower turnover)
condition: genetic background: cdc53-1; temperature: 37 C
Here the recorded protein stability index is given for each entry.
I only need the number, thanks.

Would you please look over these solved cases?
• SRSFWHAIVFLA = 0.589
• ESRRGILFIYIN = 0.601
• WVVVLFAYRGLR = 0.519
• FFFSLFFVLFFA = 0.23
• VICVVLSKVFLF = 0.573
• KRRKERIKIQQI = 0.715

Prompt: Report protein stability index, nothing else, for this sequence: ALPLRSNILSVF
Response: 0.489

Prompt: Report protein stability index, nothing else, for this sequence: LVFPPVPSLVLC
Response: 0.278

Prompt: Report protein stability index, nothing else, for this sequence: VSLCVVYGLVVG
Response: 0.377

Prompt: Report protein stability index, nothing else, for this sequence: YLYSSSPWILHG
Response: 0.748

Prompt: Report protein stability index, nothing else, for this sequence: IIAGVWFLEILG
Response: 0.525

Prompt: Report protein stability index, nothing else, for this sequence: GVLTVVLQVGVV
Response: 0.378

Prompt: Report protein stability index, nothing else, for this sequence: FSCLCLCVATSG
Response: 0.396

====

System: Saccharomyces cerevisiae
experiment.notes: protein stability index of tFT-peptide fusion (C-terminal peptide) (PSI (0-1 scale)); higher = more stable (slower turnover)
condition: genetic background: wild type; temperature: 37 C
Cut-off 0.4 on protein stability index, inclusive. At or above means criterion met; below means criterion not met.

• ALFVGVVLLVCW = criterion not met

Prompt: Dear colleague, could you confirm whether IGFSPSFQLYSA has protein stability index at or above 0.4?
Response: criterion met

Prompt: Dear colleague, could you confirm whether STSSVMVFLRMC has protein stability index at or above 0.4?
Response: criterion not met

Prompt: Dear colleague, could you confirm whether VVFWFPFVLRCC has protein stability index at or above 0.4?
Response: criterion not met

Prompt: Dear colleague, could you confirm whether ALPLRSNILSVF has protein stability index at or above 0.4?
Response: criterion met

Prompt: Dear colleague, could you confirm whether FPFFFLSILSAV has protein stability index at or above 0.4?
Response: criterion not met

====

Here the recorded protein stability index is given for each entry.
Test system: Saccharomyces cerevisiae
experiment.notes: protein stability index of tFT-peptide fusion (C-terminal peptide) (PSI (0-1 scale)); higher = more stable (slower turnover)
condition: genetic background: wild type; temperature: 30 C
I only need the number, thanks.

Would you please look over these solved cases?
* LSLDMVAPTGLA | 0.686
* ARSQTGRTYFSP | 0.694
* SFSSHRSPPPPL | 0.698
* WKETGRGTISHK | 0.699
* RPGSWINEITKE | 0.699

Prompt: Report protein stability index, nothing else, for this sequence: DGKNSGHGLAKT
Response: 0.702

Prompt: Report protein stability index, nothing else, for this sequence: GMVEVSTKTKRR
Response: 0.719

====

Test system: Saccharomyces cerevisiae
experiment.notes: protein stability index of tFT-peptide fusion (C-terminal peptide) (PSI (0-1 scale)); higher = more stable (slower turnover)
condition: genetic background: das1 deletion; temperature: 30 C
test.readout: protein stability index
I only need the number, thanks.

Would you please look over these solved cases?
* VVVLFGRLVVIC | 0.448
* EFVACFRLLVHG | 0.278
* LLQCRTGLASGR | 0.649

We now examine a further sequence.
Prompt: Provide the reported protein stability index (system: Saccharomyces cerevisiae) for VSFEFSVLWTVF
Response: 0.515

====

System: Saccharomyces cerevisiae
experiment.notes: protein stability index of tFT-peptide fusion (C-terminal peptide) (PSI (0-1 scale)); higher = more stable (slower turnover)
condition: genetic background: cdc53-1; temperature: 37 C
test.readout: protein stability index

Would you please look over these solved cases?
• RWRYHAYVITIL = 0.416
• LCHILAIIRRGA = 0.737
• QWRSWSFATLVT = 0.321
• PLRRPSWVVLSS = 0.722
• FSFSCFFFVLFV = 0.0424

Prompt: Report protein stability index, nothing else, for this sequence: PSPRLSLPPRLP
Response: 0.729

Prompt: Report protein stability index, nothing else, for this sequence: SYFSVTLFFTVI
Response: 0.383

Prompt: Report protein stability index, nothing else, for this sequence: CPALTFCLLLSS
Response: 0.567

Prompt: Report protein stability index, nothing else, for this sequence: VNTLCCVFRCNL
Response: 0.952

Prompt: Report protein stability index, nothing else, for this sequence: VVCPCIIYVPGV
Response: 0.643

Prompt: Report protein stability index, nothing else, for this sequence: WTRAHWFFQFFV
Response: 0.677

Prompt: Report protein stability index, nothing else, for this sequence: FFLLFCASFLRC
Response: 0.202

====

Test system: Saccharomyces cerevisiae
experiment.notes: protein stability index of tFT-peptide fusion (C-terminal peptide) (PSI (0-1 scale)); higher = more stable (slower turnover)
condition: genetic background: wild type; temperature: 37 C
Here the recorded protein stability index is given for each entry.
I only need the number, thanks.

Would you please look over these solved cases?
- RFPFFLPFIAFL: 0.39
- RHIPSIILAHVV: 0.296
- FSCLCLCVATSG: 0.355
- HHRLRQGLRRIN: 0.516

Prompt: Report protein stability index, nothing else, for this sequence: FAIRMHCLIFRC
Response: 0.185

Prompt: Report protein stability index, nothing else, for this sequence: WTRAHWFFQFFV
Response: 0.0858

Prompt: Report protein stability index, nothing else, for this sequence: GLCGVVVGCWVR
Response: 0.466

====

Here the recorded protein stability index is given for each entry.
System: Saccharomyces cerevisiae
experiment.notes: protein stability index of tFT-peptide fusion (C-terminal peptide) (PSI (0-1 scale)); higher = more stable (slower turnover)
condition: genetic background: cdc53-1; temperature: 37 C

Would you please look over these solved cases?
• VLLLLGGIVCVM = 0.227
• RVRNSQVVAVVG = 0.576
• LLSILSSLPLSR = 0.611

Prompt: Provide the reported protein stability index (system: Saccharomyces cerevisiae) for LFGFYFVRCLVW
Response: 0.168

Prompt: Provide the reported protein stability index (system: Saccharomyces cerevisiae) for ATSGATILVLIA
Response: 0.65

Prompt: Provide the reported protein stability index (system: Saccharomyces cerevisiae) for LFHFPSWIFCLL
Response: 0.612

Prompt: Provide the reported protein stability index (system: Saccharomyces cerevisiae) for RIFWMFFSQHIG
Response: 0.761

Prompt: Provide the reported protein stability index (system: Saccharomyces cerevisiae) for FFCCVLFSIVVY
Response: 0.0863

====

Tested on: Saccharomyces cerevisiae
experiment.notes: protein stability index of tFT-peptide fusion (C-terminal peptide) (PSI (0-1 scale)); higher = more stable (slower turnover)
condition: genetic background: wild type; temperature: 37 C
Here the recorded protein stability index is given for each entry.
I only need the number, thanks.

Prompt: Report protein stability index, nothing else, for this sequence: RPCRPLIAAFVF
Response: 0.529

Prompt: Report protein stability index, nothing else, for this sequence: PRTTHTPLLIAS
Response: 0.296

Prompt: Report protein stability index, nothing else, for this sequence: FFSGSVFMAVSL
Response: 0.379

Prompt: Report protein stability index, nothing else, for this sequence: IVRDTECGIFYR
Response: 0.723

Prompt: Report protein stability index, nothing else, for this sequence: SVIAYTKPLWFR
Response: 0.486

Prompt: Report protein stability index, nothing else, for this sequence: VSLIFCLFFLSC
Response: 0.492

Prompt: Report protein stability index, nothing else, for this sequence: LSLLILFVLLSF
Response: 0.463

Prompt: Report protein stability index, nothing else, for this sequence: RNFSFTVICLAM
Response: 0.514

Prompt: Report protein stability index, nothing else, for this sequence: CLGLFPSLLRLS
Response: 0.535

Prompt: Report protein stability index, nothing else, for this sequence: VPRSLYSVLRLA
Response: 0.11

Prompt: Report protein stability index, nothing else, for this sequence: GLDLLTKFSKEC
Response: 0.585

Prompt: Report protein stability index, nothing else, for this sequence: EGLCCGAYFLVF
Response: 0.675

Prompt: Report protein stability index, nothing else, for this sequence: FPSLLFALFLFI
Response: 0.501
